- System: Saccharomyces cerevisiae
- Assay Text: protein stability index of tFT-peptide fusion (C-terminal peptide) (PSI (0-1 scale)); higher = more stable (slower turnover)
- Condition Notes: genetic background: das1 deletion; temperature: 30 C
Output rule met for protein stability index not less than 0.6; output rule not met otherwise.

Before answering, review these 6 worked examples.
- Entry Sequence: "VFVMVLCALFYF"
  Group: "rule not met"
- Entry Sequence: "VKGYISLLLVLI"
  Group: "rule not met"
- Entry Sequence: "VCLVFVVRPCIR"
  Group: "rule not met"
- Entry Sequence: "CLQYRACLILLT"
  Group: "rule not met"
- Entry Sequence: "FNLWCRQLASIE"
  Group: "rule not met"
- Entry Sequence: "HANPGTFGPCTR"
  Group: "rule met"

Quick check, protein stability index >= 0.6? QERKILGRIKQA rule met

Confirm if protein stability index reported for the sequence FWESHVLPYRLL is 0.6 or above. rule met

Hi team, for GSLHWVMVFAVP , is the recorded protein stability index at or above 0.6? rule not met

Please tell me: is the sequence YSGRYRTLVRCW at or over 0.6 in terms of protein stability index? rule not met

Is protein stability index for ARWGVGLWRGAS at or above 0.6? rule met

API: above_or_equal(metric=protein stability index, cutoff=0.6) for item IDLISRVTVVAR rule not met

Textbook exercise: given the entry NSCHFYSRFYLA , state whether its protein stability index is greater than or equal to 0.6. rule met

====

- Tested on: Saccharomyces cerevisiae
- Assay Text: protein stability index of tFT-peptide fusion (C-terminal peptide) (PSI (0-1 scale)); higher = more stable (slower turnover)
- Condition Notes: genetic background: wild type; temperature: 30 C
Experimental Readout: protein stability index
Numbers only.

Previously resolved entries follow.
- Entry Sequence: "TLGLDPCCSYSR"
  protein stability index: 0.752
- Entry Sequence: "SDLPPCPSRPSP"
  protein stability index: 0.661
- Entry Sequence: "YQGSFGLCRLML"
  protein stability index: 0.808
- Entry Sequence: "HMCPWVWPVRDQ"
  protein stability index: 0.691
- Entry Sequence: "ACVWVVALVWVF"
  protein stability index: 0.213

I would be grateful if you could provide protein stability index for each of the following entries.
1. RPRVDLCDINPE
2. KKPVALVESRRV
3. QKDLDGSLANST
4. GPSLLLLSVLSE
5. TTVLRTFGDKQF
6. CWGAGPRLVRVW
7. RFGCGRRGQWMR

1. 0.692
2. 0.662
3. 0.692
4. 0.623
5. 0.715
6. 0.5
7. 0.722

====

So I've got a bunch of sequences here, and I need their protein stability index values.
- System: Saccharomyces cerevisiae
- Assay Text: protein stability index of tFT-peptide fusion (C-terminal peptide) (PSI (0-1 scale)); higher = more stable (slower turnover)
- Condition Notes: genetic background: das1 deletion; temperature: 30 C
One number for each entry.

State the recorded protein stability index for every item in the following list.
1. GLVGQHQGGGSM [RTC5 C-terminal 12 aa]
2. KEEEGSFNNVIG [PRE2 C-terminal 12 aa]
3. AGALAVAAAYLL [CWP1 C-terminal 12 aa]
4. LFSSRNTVCAPY [YIL134C-A C-terminal 12 aa]
5. MVEAAALKRNKK [ARO10 C-terminal 12 aa]
6. LKRISDIQADSS [PET494 C-terminal 12 aa]
7. YELDGPYMSKRI [ELP3 C-terminal 12 aa]

1. 0.68
2. 0.702
3. 0.693
4. 0.726
5. 0.686
6. 0.692
7. 0.679

Record protein stability index for all entries; do not skip any.
1. VQNWKPKPFGVL [LAS1 C-terminal 12 aa]
2. VTVLRNSQYFFS [RPO41 C-terminal 12 aa]
3. LNEKESTKLFYR [ELP6 C-terminal 12 aa]
4. LSEEALSTCCCS [YJL118W C-terminal 12 aa]
5. KSTNCCLIYDST [KKQ8 C-terminal 12 aa]

0.707
0.741
0.687
0.753
0.705
